Numbers sourced from ChEMBL document CHEMBL5233265.

# Measured Target: fMet-Leu-Phe receptor (Homo sapiens)
# Sequence (P21462 whole entry): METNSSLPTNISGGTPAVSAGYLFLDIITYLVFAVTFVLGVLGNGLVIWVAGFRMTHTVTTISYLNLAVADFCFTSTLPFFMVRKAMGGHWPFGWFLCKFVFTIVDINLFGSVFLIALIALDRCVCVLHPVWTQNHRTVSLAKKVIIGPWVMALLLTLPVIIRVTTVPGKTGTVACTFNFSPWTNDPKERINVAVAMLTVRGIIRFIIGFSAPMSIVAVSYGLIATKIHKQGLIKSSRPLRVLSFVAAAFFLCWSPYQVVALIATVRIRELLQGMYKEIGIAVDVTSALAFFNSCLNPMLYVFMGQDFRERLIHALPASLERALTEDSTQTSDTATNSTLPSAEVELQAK
# Assay Details: Agonist activity at human FPR1 expressed in CHO cells assessed as increase in calcium flux incubated for 50 mins by FLIPR calcium 5 dye based fluorescence assay
# Format: cell-based
# Condition Description: cho
Observation Type: EC50 (nM)
One number for each entry, in nM.

Documented EC50 of COc1cc(F)c([C@H]2CCN(CCC(F)F)C[C@@H]2NC(=O)Nc2ccc(Cl)cc2)c(F)c1 (relative stereo; form 2) : 1

###

# Measured Target: N-formyl peptide receptor 2 (Homo sapiens)
# Sequence (P25090 whole entry): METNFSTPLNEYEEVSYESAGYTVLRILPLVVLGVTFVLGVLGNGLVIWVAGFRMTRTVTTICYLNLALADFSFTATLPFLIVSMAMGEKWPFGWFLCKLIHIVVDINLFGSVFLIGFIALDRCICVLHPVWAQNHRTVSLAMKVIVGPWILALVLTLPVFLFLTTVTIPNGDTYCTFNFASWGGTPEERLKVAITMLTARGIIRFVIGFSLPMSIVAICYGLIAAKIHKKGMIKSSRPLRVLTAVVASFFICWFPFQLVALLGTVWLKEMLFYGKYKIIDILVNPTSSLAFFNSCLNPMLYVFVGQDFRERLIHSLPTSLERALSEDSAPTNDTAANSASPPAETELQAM
# Assay Details: Agonist activity at human FPR2 expressed in HEK293 cells assessed as increase in calcium flux incubated for 45 mins by Fluo-4 AM dye based fluorescence assay
# Format: cell-based
For each of the compounds below, state its pEC50.
Answers are plain numbers, as −log10 of the molar value.

Examples with answers:
> print(dat)
                           substance.smiles  endpoint.result
1  COc1ccc(NC(=O)N[C@@H]2/C(=N/OCCO)NC[C@H]2c2c(F)cc(OC)cc2F)cc1             9.57
2  CCN1C[C@@H](c2ccc(OC)cc2)[C@H](NC(=O)Nc2ccc(F)cc2)C1=O             9.89
3  COc1ccc(C[C@H](NC(=O)Nc2ccc(Cl)cc2)c2noc(CCO)n2)cc1             9.77

// assay N-formyl peptide receptor 2 (Homo sapiens), entry COc1cc(F)c([C@@H]2CNC(=O)[C@H]2NC(=O)Nc2ccc(C)cc2)c(F)c1 , pEC50 value = 9.07

###

# Measured Target: N-formyl peptide receptor 2 (Homo sapiens, UniProt P25090)
# Assay Details: Agonist activity at human recombinant FPR2 stably transfected in Flp-In-CHO cells assessed as increase in intracellular calcium mobilization incubated for 1 hr by Fluo-4 AM dye based fluorescence plate reader assay
# Assay type: cell-based
For each of the molecules below, state its EC50.

Examples with answers:
> print(dat)
                                   molecule  observation.type  endpoint.result
1  COc1cccc(Cc2cc(C)nn([C@@H](C)C(=O)Nc3ccc(Cl)cc3)c2=O)c1              EC50          > 10 µM
2  COc1cccc(Cc2cc(C)nn([C@H](C)C(=O)Nc3ccc(Cl)cc3)c2=O)c1              EC50          > 10 µM

Could you now look at the following molecule, please?
Documented EC50 of COc1cccc(Cc2cc(C)nn(C(C)C(=O)Nc3ccc(Cl)cc3)c2=O)c1 (racemic) : > 10 µM

###

# Measured Target: UniProt P21462
# Assay Details: Agonist activity at human FPR1 expressed in CHO-A12 cells assessed as cAMP level incubated for 1.5 hr by HTRF assay
# Assay type: cell-based
Observation Type: EC50

Documented EC50 of Cn1c(C(C)(C)C)c(NC(=O)Nc2ccc(Cl)cc2)c(=O)n1-c1ccccc1 : 50 nM

###

# Measured Target: UniProtKB P21462
# Sequence (P21462 whole entry): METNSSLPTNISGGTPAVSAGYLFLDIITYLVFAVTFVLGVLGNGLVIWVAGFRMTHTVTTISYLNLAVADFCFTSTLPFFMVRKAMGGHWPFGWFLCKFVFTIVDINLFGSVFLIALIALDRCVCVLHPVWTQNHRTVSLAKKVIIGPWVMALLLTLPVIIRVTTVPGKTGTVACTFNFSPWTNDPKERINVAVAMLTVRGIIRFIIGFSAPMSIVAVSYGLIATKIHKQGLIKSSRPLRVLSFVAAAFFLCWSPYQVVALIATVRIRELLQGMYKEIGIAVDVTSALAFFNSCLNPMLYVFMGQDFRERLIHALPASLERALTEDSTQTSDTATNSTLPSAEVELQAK
# Assay Details: Agonist activity at human FPR1 expressed in CHO cells assessed as cAMP level incubated for 1.5 hr by HTRF assay
# Assay type: cell-based
# Condition Description: read-out: EC50
Observation Type: pEC50
Give bare numbers, as −log10 of the molar value.

Documented pEC50 of Cc1cnc(NC(=O)N[C@@H]2CCCN(c3ccc(-c4ccccc4NS(C)(=O)=O)cc3F)C2=O)cn1 : 5.70

###

# Measured Target: fMet-Leu-Phe receptor (Homo sapiens) (UniProt P21462)
# Assay Details: Agonist activity at FPR1 (unknown origin) expressed in CHO/Galpha16 cells assessed as maximal calcium flux at 0.61 to 10000 nM by FLIPR assay relative to control
# Assay type: cell-based
# Condition Description: dose 0.61-10000 nM
Observation Type: Emax (%)
Numbers only, in %.

> print(dat)
                                   molecule                           measured.target  observation.type  endpoint.result
1  CC(C)C[C@H](NC(=O)CCNC(=O)Nc1ccc(Br)cc1)C(=O)O  fMet-Leu-Phe receptor (Homo sapiens) (UniProt P21462)              Emax               99
2  CCC[C@H](NC(=O)CNC(=O)Nc1ccc(Br)cc1)C(=O)O  fMet-Leu-Phe receptor (Homo sapiens) (UniProt P21462)              Emax               98
3  O=C(CNC(=O)Nc1ccc(Br)cc1)N[C@@H](Cc1ccccc1)C(=O)O  fMet-Leu-Phe receptor (Homo sapiens) (UniProt P21462)              Emax               97

For each entry beneath this line, provide reported Emax.
1. CC(C)C[C@H](NC(=O)CNC(=O)Nc1ccc(Br)cc1)C(=O)O
2. CC(C)C(C(=O)O)C(C)NC(=O)Nc1ccc(Br)cc1 (stereo in doubt; 20)
3. CC(C)C(C(=O)O)C(C)NC(=O)Nc1ccc(Br)cc1 (stereo in doubt; 18)
4. CC(C)C(C(=O)O)C(C)NC(=O)Nc1ccc(Br)cc1 (stereo in doubt; 19)

Ans:
1. 100
2. 91
3. 94
4. 103

Documented Emax of CC(C)C(C(=O)O)C(C)NC(=O)Nc1ccc(Br)cc1 (stereo in doubt; 21) : 93

###

# Measured Target: N-formyl peptide receptor 2 (Homo sapiens)
# Assay Details: Agonist activity at human FPR2 expressed in CHO cells assessed as cAMP level incubated for 1.5 hr by HTRF assay
# Format: cell-based
For each of the compounds below, state its pEC50.
One number for each entry, as −log10 of the molar value.

Examples with answers:
> print(dat)
                           substance.smiles  observation.type  endpoint.result
1  Cc1cccc(C2(NC(=O)N[C@@H]3C(=O)NC[C@H]3c3c(F)cc(Cl)cc3F)CC2)n1             pEC50             7.00
2  CC1(C)CN(c2ccc(-c3ccccc3P(C)(C)=O)c(F)c2F)C(=O)[C@@H]1NC(=O)Nc1cnc(Cl)cn1             pEC50             7.24
3  Cc1cccc(C2(NC(=O)N[C@@H]3C(=O)NC[C@H]3c3c(F)cc(Br)cc3F)CC2)n1             pEC50             8.00

For each entry beneath this line, provide reported pEC50.
1. O=C(Nc1ccc(C(F)(F)F)cc1)N[C@H]1CCCN(c2ccc(-c3ccccc3F)cc2)C1=O
2. O=C(Nc1ccc(C(F)(F)F)cc1)N[C@@H]1CCCN(c2ccc(N3CC4(COC4)C3)cc2)C1=O
3. Cc1cnc(NC(=O)N[C@@H]2CCCN(c3ccc(-c4ccccc4NS(C)(=O)=O)cc3F)C2=O)cn1

Ans:
[7.40, 8.00, 7.66]

For each entry beneath this line, provide reported pEC50.
1. CC(=O)N1CCN(c2ccc(N3CCC[C@@H](NC(=O)Nc4ccc(C(F)(F)F)cc4)C3=O)cc2)CC1
2. O=C(Nc1ccc(C(F)(F)F)cc1)N[C@H]1CCCN(c2ccc(-c3ccccc3C(=O)O)cc2)C1=O

Ans:
1: 7.00; 2: 7.40
